The values you see were collected from BigSolDB 2.1.

studyConditions: in isopropanol, 323.15 K
recordedEndpoint: solubility (mole fraction)
Respond using a number only.

Q: Returns the measured solubility (mole fraction) for the input compound. Input: COC(=O)[C@H](N)c1ccc(O)cc1
Result: 0.00677

###

studyConditions: in isopropyl acetate, 293.14 K
recordedEndpoint: solubility (mole fraction)
Respond using a number only.

Q: Returns the measured solubility (mole fraction) for the input compound. Input: COC(=O)[C@H](N)c1ccc(O)cc1
Result: 0.000146

###

studyConditions: in isopropyl acetate, 308.15 K
recordedEndpoint: solubility (mole fraction)
Respond using a number only.

Q: Returns the measured solubility (mole fraction) for the input compound. Input: COC(=O)[C@H](N)c1ccc(O)cc1
Result: 0.000555

###

studyConditions: in water, 308.15 K
recordedEndpoint: solubility (mole fraction)
Respond using a number only.

Q: Returns the measured solubility (mole fraction) for the input compound. Input: COC(=O)[C@H](N)c1ccc(O)cc1
Result: 0.000177

###

studyConditions: in ethyl acetate, 308.15 K
recordedEndpoint: solubility (mole fraction)

Q: Returns the measured solubility (mole fraction) for the input compound. Input: COC(=O)[C@H](N)c1ccc(O)cc1
Result: 0.00158

###

studyConditions: in isopropanol, 313.2 K
recordedEndpoint: solubility (mole fraction)
Respond using a number only.

Q: Returns the measured solubility (mole fraction) for the input molecule. Input: COC(=O)[C@H](N)c1ccc(O)cc1
Result: 0.00368

###

studyConditions: in ethyl acetate, 288.17 K
recordedEndpoint: solubility (mole fraction)
Respond using a number only.

Q: Returns the measured solubility (mole fraction) for the input compound. Input: COC(=O)[C@H](N)c1ccc(O)cc1
Result: 0.00029

###

studyConditions: in ethyl acetate, 313.15 K
recordedEndpoint: solubility (mole fraction)
Respond using a number only.

Q: Returns the measured solubility (mole fraction) for the input compound. Input: COC(=O)[C@H](N)c1ccc(O)cc1
Result: 0.00209

###

studyConditions: in ethanol, 283.15 K
recordedEndpoint: solubility (mole fraction)
Respond using a number only.

Q: Returns the measured solubility (mole fraction) for the input compound. Input: COC(=O)[C@H](N)c1ccc(O)cc1
Result: 0.00129

###

studyConditions: in methanol, 323.2 K
recordedEndpoint: solubility (mole fraction)
Respond using a number only.

Q: Returns the measured solubility (mole fraction) for the input molecule. Input: COC(=O)[C@H](N)c1ccc(O)cc1
Result: 0.0103

###

studyConditions: in n-propyl acetate, 308.15 K
recordedEndpoint: solubility (mole fraction)
Respond using a number only.

Q: Returns the measured solubility (mole fraction) for the input molecule. Input: COC(=O)[C@H](N)c1ccc(O)cc1
Result: 0.00102

###

studyConditions: in n-butanol, 288.2 K
recordedEndpoint: solubility (mole fraction)
Respond using a number only.

Q: Returns the measured solubility (mole fraction) for the input compound. Input: COC(=O)[C@H](N)c1ccc(O)cc1
Result: 0.000737

###

studyConditions: in isopropyl acetate, 298.15 K
recordedEndpoint: solubility (mole fraction)
Respond using a number only.

Q: Returns the measured solubility (mole fraction) for the input compound. Input: COC(=O)[C@H](N)c1ccc(O)cc1
Result: 0.000237

###

studyConditions: in isopropanol, 298.15 K
recordedEndpoint: solubility (mole fraction)

Q: Returns the measured solubility (mole fraction) for the input compound. Input: COC(=O)[C@H](N)c1ccc(O)cc1
Result: 0.000976

###

studyConditions: in ethyl acetate, 303.16 K
recordedEndpoint: solubility (mole fraction)
Respond using a number only.

Q: Returns the measured solubility (mole fraction) for the input molecule. Input: COC(=O)[C@H](N)c1ccc(O)cc1
Result: 0.00113
